Hi there, I'd appreciate the recorded concentration at 8 h for every entry that follows.
method_notes: Brain-to-blood drug concentration ratio of mice
Format: in vivo
applied_conditions: mouse, brain, 5 mg/kg PO, 8 h, read-out: Brain drug concentration
Answers are plain numbers, in ng/mL.

{"molecule": "Cn1cc([C@@H]([C@H](O)c2ccccc2)N2Cc3ccc(-c4nnc(C(F)F)o4)cc3S2(=O)=O)cn1 [Compound 80]", "concentration at 8 h, ng/mL": 72}

// switching to the query molecule
Query: Please look at this molecule and report its concentration at 8 h: CC(F)(F)C(=O)N[C@@H]1CCCC(F)(F)[C@H]1N1Cc2ccc(-c3nnc(C(F)F)o3)cc2S1(=O)=O [Compound 10]
Response: 80

Each recorded value in this set is attributed to patent US20250257060A1.
